Data provenance is patent US20100202967A1.

Molecular target: T1, fibrin
T1 chain 1: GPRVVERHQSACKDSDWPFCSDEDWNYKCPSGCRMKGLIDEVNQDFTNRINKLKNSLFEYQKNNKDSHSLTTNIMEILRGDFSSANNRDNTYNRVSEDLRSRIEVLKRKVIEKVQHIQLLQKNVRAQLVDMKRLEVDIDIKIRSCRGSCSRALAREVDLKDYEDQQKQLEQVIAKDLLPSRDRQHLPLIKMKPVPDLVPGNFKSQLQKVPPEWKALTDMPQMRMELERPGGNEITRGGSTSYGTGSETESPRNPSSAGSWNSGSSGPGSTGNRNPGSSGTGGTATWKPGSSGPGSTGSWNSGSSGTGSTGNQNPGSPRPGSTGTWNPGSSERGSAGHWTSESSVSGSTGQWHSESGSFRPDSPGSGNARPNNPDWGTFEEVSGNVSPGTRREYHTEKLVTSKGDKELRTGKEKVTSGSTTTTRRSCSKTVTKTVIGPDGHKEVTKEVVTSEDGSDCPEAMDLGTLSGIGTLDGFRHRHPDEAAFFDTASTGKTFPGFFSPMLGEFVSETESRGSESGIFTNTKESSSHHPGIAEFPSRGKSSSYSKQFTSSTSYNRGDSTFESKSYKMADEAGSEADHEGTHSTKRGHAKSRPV
T1 chain 2: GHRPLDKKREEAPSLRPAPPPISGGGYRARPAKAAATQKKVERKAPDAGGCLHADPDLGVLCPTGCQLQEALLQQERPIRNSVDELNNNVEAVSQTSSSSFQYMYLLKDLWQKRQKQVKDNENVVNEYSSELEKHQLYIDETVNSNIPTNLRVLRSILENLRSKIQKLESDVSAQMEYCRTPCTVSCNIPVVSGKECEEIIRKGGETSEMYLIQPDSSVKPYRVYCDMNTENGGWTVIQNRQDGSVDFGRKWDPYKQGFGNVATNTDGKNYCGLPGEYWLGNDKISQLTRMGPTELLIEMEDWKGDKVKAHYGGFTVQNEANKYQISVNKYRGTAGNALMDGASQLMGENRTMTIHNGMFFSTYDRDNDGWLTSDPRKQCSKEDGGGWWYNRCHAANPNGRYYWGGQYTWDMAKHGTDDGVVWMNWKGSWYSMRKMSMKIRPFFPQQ
T1 chain 3: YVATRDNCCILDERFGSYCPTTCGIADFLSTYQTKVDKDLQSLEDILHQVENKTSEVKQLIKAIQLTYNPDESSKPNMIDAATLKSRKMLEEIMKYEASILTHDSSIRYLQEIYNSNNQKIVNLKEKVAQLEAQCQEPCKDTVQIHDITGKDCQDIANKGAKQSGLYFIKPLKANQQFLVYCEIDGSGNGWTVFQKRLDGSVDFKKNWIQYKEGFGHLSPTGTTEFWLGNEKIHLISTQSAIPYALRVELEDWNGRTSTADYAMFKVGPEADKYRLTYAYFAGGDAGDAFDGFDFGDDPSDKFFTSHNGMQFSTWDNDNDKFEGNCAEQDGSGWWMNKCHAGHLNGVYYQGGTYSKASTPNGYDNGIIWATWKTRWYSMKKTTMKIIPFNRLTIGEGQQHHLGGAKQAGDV
Assay: competition fluorescence polarization assay (n = 2)
Bridge positions count the residues as written; N and C are the ends. Square brackets hold non-standard residues; d marks the D form. * marks the point of attachment. αGalNAc = CC(=O)N[C@@H]1[C@@H](O)[C@@H](O)[C@@H](CO)O[C@@H]1*; Hyp = O=C(O)[C@@H]1C[C@@H](O)CN1; AEEA = NCCOCCOCC(=O)O
List of Rel IC50 values.

- BINDER: "Ac-KGKGKGWQPCPWESWTFCWDPGGGK-NH2 (disulfide 10-18) [Ac-KGKGKGWQPC*PWESWTFC*WDPGGGK-NH2]"
  Rel IC50: "0.595 ratio to Ac-Seq000-GGGK-NH2"
- BINDER: "Ac-GPPGWQPCPWESWTFCWDPGGGK-NH2 (disulfide 8-16) [Ac-GPPGWQPC*PWESWTFC*WDPGGGK-NH2]"
  Rel IC50: "0.235 ratio to Ac-Seq000-GGGK-NH2"
- BINDER: "Ac-WQPC[Hyp]WESWTFCWDPGGGK-NH2 (disulfide 4-12) [Ac-WQPC*-Hypt4-WESWTFC*WDPGGGK-NH2]"
  Rel IC50: "0.55 ratio to Ac-Seq000-GGGK-NH2"
- BINDER: "H-RGWQPCPWESWTFCWDPGGGK-NH2 (disulfide 6-14) [RGWQPC*PWESWTFC*WDPGGGK-NH2]"
  Rel IC50: "0.511 ratio to Ac-Seq000-GGGK-NH2"
- BINDER: "Ac-SGSG[AEEA]WQPCPWESWTFCWDPGGGK-NH2 (disulfide 9-17) [Ac-SGSGJWQPC*PWESWTFC*WDPGGGK-NH2]"
  Rel IC50: "0.714 ratio to Ac-Seq000-GGGK-NH2"
- BINDER: "Ac-SGSGSGSGWQPCPWESWTFCWDPGGGK-NH2 (disulfide 12-20) [Ac-SGSGSGSGWQPC*PWESWTFC*WDPGGGK-NH2]"
  Rel IC50: "0.527 ratio to Ac-Seq000-GGGK-NH2"
- BINDER: "Ac-S(αGalNAc)WQPCPWESWTFCWDPGGGK-NH2 (disulfide 5-13) [Ac-S(Galnac)-WQPC*PWESWTFC*WDPGGGK-NH2]"
  Rel IC50: "0.559 ratio to Ac-Seq000-GGGK-NH2"
- BINDER: "Ac-GGRGWQPCPWESWTFCWDPGGGK-NH2 (disulfide 8-16) [Ac-GGRGWQPC*PWESWTFC*WDPGGGK-NH2]"
  Rel IC50: "0.37 ratio to Ac-Seq000-GGGK-NH2"
- BINDER: "Ac-KKGWQPCPWESWTFCWDPGGGK-NH2 (disulfide 7-15) [Ac-KKGWQPC*PWESWTFC*WDPGGGK-NH2]"
  Rel IC50: "0.357 ratio to Ac-Seq000-GGGK-NH2"
- BINDER: "H-RWQPCPWESWTFCWDPGGGK-NH2 (disulfide 5-13) [RWQPC*PWESWTFC*WDPGGGK-NH2]"
  Rel IC50: "0.47 ratio to Ac-Seq000-GGGK-NH2"
